# Assayed target: T1, full-length human SOX2 (human, UniProt P48431 1-317)
# T1 construct: human SOX2, UniProt P48431, 317 amino acids; with the N-terminal His-tag peptide the recombinant protein has 327 amino acids; cloned into the pVFT1S plasmid
# T1 sequence (P48431 whole entry): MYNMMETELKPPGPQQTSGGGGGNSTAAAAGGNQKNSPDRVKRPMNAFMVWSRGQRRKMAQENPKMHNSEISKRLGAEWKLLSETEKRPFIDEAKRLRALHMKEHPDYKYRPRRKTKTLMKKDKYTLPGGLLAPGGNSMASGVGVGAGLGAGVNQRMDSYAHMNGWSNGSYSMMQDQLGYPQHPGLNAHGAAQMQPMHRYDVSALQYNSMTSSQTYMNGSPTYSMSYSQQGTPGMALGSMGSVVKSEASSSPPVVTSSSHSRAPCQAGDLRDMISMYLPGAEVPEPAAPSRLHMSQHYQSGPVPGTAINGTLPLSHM
# Assay protocol: BLI; SOX2 (0.2 mg/ml) immobilised on an AR2G chip, quenched with 1 M ethanolamine; p300 fragments in PBS; global fit to a 1:1 binding model (BLItz Pro v.1.2.1.5)
# Condition details: both partners purified
Reported metric: Kd (µM)
Express your answer in µM, writing the number without its unit.

// field: Kd; key: p300 bromodomain (aa 1067-1139) (domain or fragment, human, UniProt Q09472 1067-1139, looked up, human p300, UniProt Q09472, bromodomain, aa 1067-1139; also called BD; p300BD; source: E. coli BL21(DE3), purified from the supernatant (HisTrap HP, Superose 6 Increase)) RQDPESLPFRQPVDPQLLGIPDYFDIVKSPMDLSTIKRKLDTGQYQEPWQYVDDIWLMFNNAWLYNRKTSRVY ; value = 54
